# measurement description: log P (pH2.3)
# Type: physicochemical
# measurement conditions: reversed-phase HPLC column (C18); method [a]: HPLC, acidic range, pH 2.3, 0.1% aqueous phosphoric acid and acetonitrile
quantity: chromatographic logP

Problem: Consider the compound Cc1cc(C(F)(F)F)nn1CC(=O)N1CCC(c2nc(CCc3ccccc3)cs2)CC1 and give its measured chromatographic logP.
Solution: 3.79

----------
# measurement description: log P (pH2.3)
# Type: physicochemical
# measurement conditions: method [b]: LC-MS, acidic range, pH 2.7, 0.1% aqueous formic acid and acetonitrile; HPLC on reversed-phase C 18
quantity: log p

Sample answers from the record:
Problem: For the compound Cc1ccc(C)c(CC(=O)N2CCC(c3nc(C#Cc4c(F)cccc4F)cs3)CC2)c1 , what log p is on record?
Solution: 4.36^[b]

Problem: State the recorded log p for this entry: Cc1cccnc1/C=C\c1csc(C2CCN(C(=O)Cn3nc(C(F)(F)F)cc3C(F)(F)F)CC2)n1
Solution: 2.46^[b]

Problem: I have this compound here, Cc1ccccc1C=Cc1csc(C2CCN(C(=O)Cn3nc(C(F)(F)F)cc3C)CC2)n1 (mixture of isomers) , and I need its recorded log p.
Solution: 4.23^[b]

---
Problem: Would you mind telling me what log p value was observed for O=C(Cn1nc(C(F)F)cc1C(F)F)N1CCC(c2nc(C#Cc3c(F)cccc3F)cs2)CC1 ?
Solution: 3.7^[b]

Problem: Which log p value belongs to Cc1cccnc1C#Cc1csc(C2CCN(C(=O)Cn3nc(C(F)(F)F)cc3C(F)(F)F)CC2)n1 ?
Solution: 3.37^[b]

Problem: Reported log p, compound Cc1ccc(C)c(CC(=O)N2CCC(c3nc(CCc4c(F)cccc4F)cs3)CC2)c1 : ____
Solution: 4.48^[b]

Problem: If you can, please state the reported log p value of Cc1ccc(C)c(CC(=O)N2CCC(c3nc(C#Cc4c(C)noc4C)cs3)CC2)c1 .
Solution: 3.67^[b]

----------
Listed here: items and their measured log p.
# measurement description: log P (pH2.3)
# Format: physicochemical
# measurement conditions: method [b]: LC-MS, acidic range, pH 2.7, 0.1% aqueous formic acid and acetonitrile

Reference set (5 entries):
Problem: What value of measured log p is listed for CC(C)(C)c1cc(C(F)(F)C(F)(F)F)nn1CC(=O)N1CCC(c2nc(C#Cc3cccc4ccccc34)cs2)CC1 [Example I-120] ?
Solution: 5.59^[b]

Problem: Tell me the measured log p of Cc1nc(C2CCN(C(=O)Cn3nc(C(F)(F)F)cc3C)CC2)sc1CC(C)C [Example I-73] , please.
Solution: 3.75^[b]

Problem: Using the record for CC(C)(C)c1cc(C(F)(F)C(F)(F)F)nn1CC(=O)N1CCC(c2nc(CCc3cccc4ccccc34)cs2)CC1 [Example I-113] , report its log p.
Solution: 5.54^[b]

Problem: I'd like to know its log p. The compound in question is CC(C)c1cc(C(F)(F)F)n(CC(=O)N2CCC(c3nc(CCc4cccc5ccccc45)cs3)CC2)n1 [Example I-121]
Solution: 4.89^[b]

Problem: # get_value(readout='log p', item= Cc1cc(C(F)(F)F)nn1CC(=O)N1CCC(c2nc(/C=C\c3ccc(Cl)cc3)cs2)CC1 [Example I-9] )
Solution: 4.41^[b]

---
Problem: // returns reported log p for input O=C(Cn1nc(C(F)F)cc1C(F)F)N1CCC(c2nc(C#Cc3cccc4ccccc34)cs2)CC1 [Example I-117]
Solution: 4.41^[b]

Problem: Reported log p, compound O=C(Cn1ccc(C(F)(F)F)n1)N1CCC(c2nc(/C=C\c3cccc4ccccc34)cs2)CC1 [Example I-18] : ____
Solution: 4.35^[b]

Problem: Name the reported log p value associated with the compound Cc1cc(C(F)(F)F)nn1CC(=O)N1CCC(c2nc(/C=C/c3cccc(C(F)(F)F)c3)cs2)CC1 [Example I-94]
Solution: 4.46^[b]

Problem: # get_value(readout='log p', item= O=C(Cn1ccc(C(F)(F)F)n1)N1CCC(c2nc(/C=C\c3ccc(Cl)cc3)cs2)CC1 [Example I-10] )
Solution: 4.2^[b ]

Problem: Query (compound): O=C(Cn1cccn1)N1CCC(c2nc(CCc3ccccc3)cs2)CC1 [Example I-69] ; field requested: log p
Solution: 2.56^[b]

Problem: I have this compound here, CC(C)(C)c1cc(C(F)(F)F)n(CC(=O)N2CCC(c3nc(C#Cc4cccc5ccccc45)cs3)CC2)n1 [Example I-118] , and I need its recorded log p.
Solution: 5.48^[b]

Problem: Any idea what its log p is? The compound is COc1ccc(/C=C\c2csc(C3CCN(C(=O)Cn4nc(C(F)(F)F)c(Cl)c4C)CC3)n2)cc1 [Example I-14]
Solution: 4.46^[b]

Problem: Which measured log p value corresponds to Cc1c(Cl)c(C(F)(F)F)nn1CC(=O)N1CCC(c2nc(CCc3ccccc3)cs2)CC1 [Example I-60] ?
Solution: 4.34^[b]

Problem: Reported log p, compound Cc1cc(C(F)F)n(CC(=O)N2CCC(c3nc(CCc4ccccc4)cs3)CC2)n1 [Example I-35] : ____
Solution: 3.37^[b]

Problem: Can you share its log p? I mean this compound: Cc1cc(C(F)(F)F)nn1CC(=O)N1CCC(c2nc(C#Cc3ccc(Cl)cc3Cl)cs2)CC1 [Example I-105]
Solution: 4.72^[b]

----------
# measurement description: log P (pH2.3)
# Type: physicochemical
# measurement conditions: method [c]: LC-MS, neutral range, pH 7.8, 0.001 molar aqueous ammonium bicarbonate and acetonitrile
Measured log p accompanies every entry in the list below.

Sample records with log p:
Problem: I have this compound here, Cc1cc(C)n(CC(=O)N2CCC(c3nc(/C=C/CC(C)c4ccccc4)cs3)CC2)n1 (stereo not shown) , and I need its recorded log p.
Solution: 3.83^[c]

Problem: So what does the record say about log p for Cc1cc(C(F)(F)F)nn1CC(=O)N1CCC(c2nc(CCc3ccc(Cl)cc3Cl)cs2)CC1 ?
Solution: 4.77^[c];

Problem: Item Cc1cc(C(F)(F)F)nn1CC(=O)N1CCC(c2nc(CCc3c(F)cccc3F)cs2)CC1 has what recorded log p?
Solution: 3.97^[c],

Problem: So what does the record say about log p for Cc1cc(C)n(CC(=O)N2CCC(c3nc(CCc4cccc5ccccc45)cs3)CC2)n1 ?
Solution: 3.39^[c]

Problem: // returns reported log p for input Cc1cc(C)n(CC(=O)N2CCC(c3nc(C#Cc4cccc5ccccc45)cs3)CC2)n1
Solution: 3.85^[c]

Problem: Name the recorded log p for Cc1ccccc1CCc1csc(C2CCN(C(=O)Cn3nc(C(F)(F)F)cc3C)CC2)n1 .
Solution: 4.16^[c];

Could you now look at the following compound, please?
Problem: Could you share which log p value was measured for O=C(Cc1cc(Br)ccc1Br)N1CCC(c2nc(C#Cc3cccc4ccccc34)cs2)CC1 ?
Solution: 5.52^[c];

----------
# measurement description: log P (pH2.3)
# Type: physicochemical
# measurement conditions: method [b]: LC-MS, acidic range, pH 2.7, 0.1% aqueous formic acid and acetonitrile; HPLC on reversed-phase C 18
quantity: log p

Example entries begin here.
Problem: # input compound: Cc1ccccc1C=Cc1csc(C2CCN(C(=O)Cn3nc(C(F)(F)F)cc3C(F)(F)F)CC2)n1 (mixture of isomers) [Example I-174] ; wanted: its log p
Solution: 4.93^[b]

Problem: Item under review: O=C(Cn1nc(C(F)F)cc1C(F)F)N1CCC(c2nc(C#Cc3ccccc3Br)cs2)CC1 [Example I-219] . Reported log p?
Solution: 4.04^[b]

Further cases:
Problem: Fill blank: measured log p of the compound Cc1ccc(C)c(CC(=O)N2CCC(c3nc(C#Cc4ccccc4Br)cs3)CC2)c1 [Example I-231] is ____.
Solution: 4.77^[b]

Problem: Looking for the measured log p of Cc1cccnc1C#Cc1csc(C2CCN(C(=O)Cn3nc(C(F)(F)F)cc3C)CC2)n1 [Example I-210] , can you help?
Solution: 2.72^[b]

Problem: Entry O=C(Cn1nc(C(F)(F)F)cc1C(F)(F)F)N1CCC(c2nc(C=Cc3ccccc3Br)cs2)CC1 (mixture of isomers) [Example I-175] : reported log p = ?
Solution: 4.99^[b]

Problem: Consider the compound C#Cc1csc(C2CCN(C(=O)Cn3nc(C(F)F)cc3C(F)F)CC2)n1 [Example I-239] and give its measured log p.
Solution: 2.45^[b]

Problem: Recorded log p of Cc1noc(C)c1C#Cc1csc(C2CCN(C(=O)Cc3cc(Cl)ccc3Cl)CC2)n1 [Example I-229] , please.
Solution: 3.86^[b]

Problem: Entry under review: Cc1cc(C(F)(F)F)nn1CC(=O)N1CCC(c2nc(C#Cc3ccccc3Br)cs2)CC1 [Example I-207] . Reported log p?
Solution: 4.16^[b]

Problem: Dear colleague, I am looking for the recorded log p of the following compound: Cc1ccc(C)c(CC(=O)N2CCC(c3nc(CCc4ccccc4C)cs3)CC2)c1 [Example I-158]
Solution: 4.67^[b]

Problem: Which log p reading was recorded for the compound C#Cc1csc(C2CCN(C(=O)Cc3cc(C)ccc3C)CC2)n1 [Example I-238] ?
Solution: 2.93^[b];

Problem: Which log p is listed for Cc1cccnc1C#Cc1csc(C2CCN(C(=O)Cn3nc(C(F)F)cc3C(F)F)CC2)n1 [Example I-222] ?
Solution: 2.68^[b]

Problem: What does the data say about its log p? Entry: Cc1ccccc1C#Cc1csc(C2CCN(C(=O)Cn3nc(C(F)F)cc3C(F)F)CC2)n1 [Example I-218]
Solution: 3.99^[b]

Problem: Would you mind telling me what log p value was observed for Cc1ccccc1C#Cc1csc(C2CCN(C(=O)Cn3nc(C(F)(F)F)cc3C)CC2)n1 [Example I-206] ?
Solution: 4.15^[b]

Problem: Return reported log p; argument: O=C(Cn1nc(C(F)(F)F)cc1C(F)(F)F)N1CCC(c2nc(C#Cc3ccccc3Br)cs2)CC1 [Example I-213]
Solution: 4.74^[b]

Problem: Suppose we examine the compound O=C(Cc1cc(Cl)ccc1Cl)N1CCC(c2nc(C#Cc3ccccc3Br)cs2)CC1 [Example I-225] ; what log p value has been reported?
Solution: 4.91^[b]
